# Test system: Caspase3 activity in Hela S100 (blocked by IAPs)
# experiment.notes: In vitro caspase-3 activation assay in Hela S100
# Type: biochemical
# condition: 100 nM compound; activity compared with reference compound; Table 1 experiment
observed.property: % Activity at 100 nM (%)

- compound: "CN[C@@H](C)C(=O)N[C@@H](CC#CC#CC[C@H](NC(=O)[C@H](C)NC)C(=O)N1CCC[C@H]1C(=O)N[C@@H]1CCCc2ccccc21)C(=O)N1CCC[C@H]1C(=O)N[C@@H]1CCCc2ccccc21.Cl.Cl [Ref cpd, reference compound]"
  observed.property: "% Activity at 100 nM"
  measure.unit: "%"
  readout.value: 100
- compound: "CN[C@@H](C)C(=O)N[C@H](C(=O)N1C[C@@H](NC(=O)c2ccc(C(=O)N[C@H]3C[C@@H](C(=O)N[C@@H]4CCCc5ccccc54)N(C(=O)[C@@H](NC(=O)[C@H](C)NC)C(C)(C)C)C3)s2)C[C@H]1C(=O)N[C@@H]1CCCc2ccccc21)C(C)(C)C.Cl.Cl"
  observed.property: "% Activity at 100 nM"
  measure.unit: "%"
  readout.value: 104
- compound: "CN[C@@H](C)C(=O)N[C@H](C(=O)N1C[C@@H](NC(=O)c2cc(O)cc(C(=O)N[C@H]3C[C@@H](C(=O)N[C@@H]4CCCc5ccccc54)N(C(=O)[C@@H](NC(=O)[C@H](C)NC)C(C)(C)C)C3)c2)C[C@H]1C(=O)N[C@@H]1CCCc2ccccc21)C(C)(C)C.Cl.Cl"
  observed.property: "% Activity at 100 nM"
  measure.unit: "%"
  readout.value: 86
- compound: "CN[C@@H](C)C(=O)NC(C(=O)C1C[C@@H](NC(=O)c2cccc(C(=O)N[C@H]3CC(C(=O)N[C@@H]4CCCc5ccccc54)N(C(=O)[C@@H](NC(=O)[C@H](C)NC)C(C)(C)C)C3)c2)CC1C(=O)N[C@@H]1CCCc2ccccc21)C(C)(C)C.Cl.Cl (stereo partly shown)"
  observed.property: "% Activity at 100 nM"
  measure.unit: "%"
  readout.value: 120
- compound: "CN[C@@H](C)C(=O)N[C@H](C(=O)N1C[C@@H](NC(=O)c2cc(C(=O)N[C@H]3C[C@@H](C(=O)N[C@@H]4CCCc5ccccc54)N(C(=O)[C@@H](NC(=O)[C@H](C)NC)C(C)(C)C)C3)[nH]n2)C[C@H]1C(=O)N[C@@H]1CCCc2ccccc21)C(C)(C)C.Cl.Cl"
  observed.property: "% Activity at 100 nM"
  measure.unit: "%"
  readout.value: 116
- compound: "CN[C@@H](C)C(=O)N[C@H](C(=O)N1C[C@@H](NC(=O)CN(C)CC(=O)N[C@H]2C[C@@H](C(=O)N[C@@H]3CCCc4ccccc43)N(C(=O)[C@@H](NC(=O)[C@H](C)NC)C(C)(C)C)C2)C[C@H]1C(=O)N[C@@H]1CCCc2ccccc21)C(C)(C)C.Cl.Cl.Cl"
  observed.property: "% Activity at 100 nM"
  measure.unit: "%"
  readout.value: 115
- compound: "CN[C@@H](C)C(=O)N[C@H](C(=O)N1C[C@@H](NS(=O)(=O)c2cccc(S(=O)(=O)N[C@H]3C[C@@H](C(=O)N[C@@H]4CCCc5ccccc54)N(C(=O)[C@@H](NC(=O)[C@H](C)NC)C(C)(C)C)C3)c2)C[C@H]1C(=O)N[C@@H]1CCCc2ccccc21)C(C)(C)C.Cl.Cl"
  observed.property: "% Activity at 100 nM"
  measure.unit: "%"
  readout.value: 108
